The origin of these recorded values is PubChem BioAssay (NCATS).

tested on: HaCat; assay: Cytotoxic Profiling of Annotated Libraries Using Quantitative High-Throughput Screening (AID 1296008); details: Five cell lines viability, CellTiter-Glo ATP luminescence, 48-72 h; stronger effect = lower value; also: % is scaled to controls: 0 for no effect and ±100 for the full control effect; nearly all actives have a fitted effect of over 60% in size
Results filed as inconclusive are left out. Active and inactive are the calls of the source. Calls follow the shape of the dose curve; as a rule, active = well fitted inhibition curve with a large enough effect; inconclusive = small, poorly fitted or top-dose-only effect; inactive = flat fitted curve, though single readings scatter.
The entries below come with measured max response values attached.
measured.quantity: max response

- Nc1nc2c(nc(Br)n2[C@@H]2O[C@@H]3COP(=O)(O)O[C@H]3[C@H]2O)c(=O)[nH]1: -8.41% (inactive)
- COCCN(C(=O)c1cc(OC)c(OC)c(OC)c1)c1nc(-c2ccccc2)cs1: 0.0568% (inactive)
- COc1ccc(Sc2ccc(NC(=O)c3ccccc3Cl)cc2C#N)cc1: -11.3% (inactive)
- C[C@H]1CO[C@@H]2Cn3cc(C(=O)NCc4ccc(F)cc4F)c(=O)c(O)c3C(=O)N12: 1.95% (inactive)
- OC(CC1c2ccccc2-c2cncn21)C1CCCCC1 (configuration not stated): -2.64% (inactive)
- CCn1c(N)c(C(=O)NC)c(=O)c2ccc(C#CC(C)(O)COC)nc21 (configuration not stated): -27.4% (inactive)
- CCC(CC)(NC(=O)C(C)C)C(=O)N[C@@H](CCCN=C(N)N)C(=O)NC1(C(=O)NC(c2ccc(F)cc2)c2ccc(F)cc2)CCCC1: -3.8% (inactive)
- C=C1C(=O)OC2/C=C(\CO)CC/C=C(\C=O)C(OC)C(OC(=O)C(C)CC)C12 (configuration not stated): -18% (inactive)
- COc1cccc(CN(C(=O)CC(C)(C)C)[C@H]2C[C@H](C(=O)N3CCNCC3)N(Cc3ccc4c(c3)OCO4)C2)c1: -6.86% (inactive)
- C=C1/C(=C/C=C2\CCC[C@@]3(C)C2CCC3[C@H](C)/C=C/[C@@H](O)C2CC2)C[C@@H](O)C[C@@H]1O (some centres not stated): -20.3% (inactive)
- COC1C(OC(=O)/C=C/C=C/C=C/C=C/C(=O)O)CCC2(CO2)C1C1(C)OC1CC=C(C)C (configuration not stated): -3.3% (inactive)
- CN(C)CCN(Cc1ccccc1)C(=O)c1cc(-c2ccc(F)cc2)n2nc(C(C)(C)C)cc2n1: -107% (inactive)

###

test system: Tov-21-G; assay: Primary qHTS to identify gynecologic anti-cancer compounds using libraries of approved drugs and bioactive compounds (AID 1345084); details: Gynecologic cancer cell panel viability, ATPlite luminescence, 48 h; series mostly up to 57.5 µM; also: nearly all actives have a fitted effect of over 55% in size
Inconclusive results are not listed. The source made the active and inactive calls. Calls follow the shape of the dose curve; as a rule, active = well fitted cell-killing curve with a large enough effect; inconclusive = small, poorly fitted or top-dose-only effect, or effect the other way; inactive = flat fitted curve, though single readings scatter.
measured.quantity: outcome

* Cc1noc(C)c1-c1cc(O)cc(C(O)c2ccccc2)c1 (stereo not drawn) | inactive
* CC(=O)OC[C@]12[C@H](OC(C)=O)[C@H](OC(=O)c3ccccc3)[C@@H]3[C@@H](OC(C)=O)[C@]1(OC3(C)C)[C@H](C)C[C@H](OC(C)=O)[C@@H]2OC(=O)c1ccccc1 | inactive
* CC(=O)C=C=C1C(C)(C)CC(O)CC1(C)O[C@@H]1O[C@H](CO[C@H]2OC[C@](O)(CO)[C@H]2O)[C@@H](O)[C@H](O)[C@H]1O (stereo partly drawn) | inactive

###

tested on: PA-1; assay: Primary qHTS to identify gynecologic anti-cancer compounds using libraries of approved drugs and bioactive compounds (AID 1345084); conditions: Gynecologic cancer cell panel viability, ATPlite luminescence, 48 h; series mostly up to 57.5 µM; also: nearly all actives have a fitted effect of over 55% in size
Results filed as inconclusive are left out. Activity calls are given as the source filed them. Calls follow the shape of the dose curve; as a rule, active = well fitted cell-killing curve with a large enough effect; inconclusive = small, poorly fitted or top-dose-only effect, or effect the other way; inactive = flat fitted curve, though single readings scatter.
Classes used: active, inactive

• Cn1ncc(Cl)c1-c1cc(C(=O)N[C@H](CN)Cc2cccc(F)c2)sc1Cl = active
• C=C(C(=O)OC)[C@@H]1CC=C2C=CC(=O)[C@H](C)[C@@]2(C)C1 = inactive
• C#CCNCc1cc2cc(OCc3ccccc3)ccc2[nH]1 = inactive
• CC[C@@H](C)Nc1cc(C(=O)NC2CC3CC[C@@H](C2)N3c2ccc(C(=O)C3CC3)cn2)c(C)cc1C(N)=O (stereo not given in full) = active
• Cc1[nH]c2ccc(F)cc2c1-c1nc2c3cccnc3c3ncccc3c2[nH]1 = active

###

The entries below come with measured max response values attached.
test system: NIH3T3; assay: Cytotoxic Profiling of Annotated Libraries Using Quantitative High-Throughput Screening (AID 1296008); settings: Five cell lines viability, CellTiter-Glo ATP luminescence, 48-72 h; stronger effect = lower value; also: % is scaled to controls: 0 for no effect and ±100 for the full control effect; nearly all actives have a fitted effect of over 60% in size
Records with an inconclusive call do not appear.
measured.quantity: max response (%)

* COc1c(F)cccc1C(=O)N1C[C@@H](C)CC[C@H]1CNc1ccc(Br)cn1 | -27.7
* CCC(CC)(NC(=O)C(C)C)C(=O)N[C@@H](CCCN=C(N)N)C(=O)NC1(C(=O)NC(c2ccc(F)cc2)c2ccc(F)cc2)CCCC1 | -2.32
* NC(=O)C1=CC2C3C=CC2C(OC3=O)O1 (configuration not stated) | 3.24
* C=CC(=O)Nc1cc(-n2c(=O)ccc3cnc4ccc(-c5ccc(NS(C)(=O)=O)cc5)cc4c32)ccc1C | -11.5
* CCNc1nc(Nc2cc(F)c(C(=O)N3CCOCC3)cc2OC)ncc1C(F)(F)F | -2.73
* CC(=O)O[C@@H]1CC2C(C)(C)C(=O)C=C[C@]2(C)C2CC[C@@]3(C)[C@H](c4ccoc4)OC(=O)[C@H]4O[C@]43[C@@]21C (some centres not stated) | -4.81
* COc1ccccc1N1CCN(CC[C@@](C)(C(=O)C2CCCCC2)c2ccccc2)CC1 | -6.96

###

Biological target: N-terminal Xaa-Pro-Lys N-methyltransferase 1 (Homo sapiens)
Test: Confirmatory qHTS for Inhibitors of N-terminal methyltransferase 1 (NTMT1): MTaseGlo Assay (AID 1645874); also: nearly all actives have a fitted effect of over 65% in size
Settings: NTMT1 enzyme, MTase-Glo SAH luminescence; series mostly up to 100 µM
Text: Assay Submitter (PI): Rong Huang Ph.D. Purdue University, West Lafayette, IN 47907 The N-terminal methytransferase 1 is the first methyltransferase that methylates protein alpha-N-amines and plays an important role in regulating cell mitosis, chromatin interactions and DNA repair. […] To address this unmet need, a panel of assay is created and established to enable quantitative high-throughput screening (qHTS) for novel, potent, and selective small molecule NTMT1 inhibitors. […]
Results filed as inconclusive are left out. The source made the active and inactive calls. Calls follow the shape of the dose curve; as a rule, active = well fitted inhibition curve with a large enough effect; inconclusive = small, poorly fitted or top-dose-only effect; inactive = no such curve, though single readings can be large or run the other way.
Classes used: active, inactive

* COc1c(C(C)C)c(O)c(O)c2c1C(OC)[C@H]1OC(=O)[C@@]23CCCC(C)(C)[C@H]13 (stereo partly drawn) | inactive
* COc1cccc(-c2cn(-c3ccc(CCN4CCC(O)CC4)cc3)c3ncnc(N)c23)c1 | active
* N#Cc1ccc(Nc2nc(-c3ccc(O)cc3O)cs2)cc1C(F)(F)F | inactive

###

System: Zika virus NS2B-NS3 protease (linked construct)
Test: Primary screen NINDS Rhodamine qHTS for Zika virus inhibitors (AID 1347160); also: nearly all actives have a fitted effect of over 55% in size
Details: purified NS2B-NS3 protease, Rhodamine110 substrate fluorescence; series mostly up to 57.1 µM
Text: Avindra Nath, Ph.D., National Institute of Neurological Disorders and Stroke (NINDS), Bethesda, MD Radhakrishnan Padmanabhan, Ph.D., Georgetown University (GU), Washington D.C. Zika Virus causes congenital defects, including microcephaly and is associated with Guillain-Barre syndrome, eningoencephalitis and myelitis in infected adult. […]
Inconclusive results are not listed. Activity calls are given as the source filed them. Calls follow the shape of the dose curve; as a rule, active = well fitted inhibition curve with a large enough effect; inconclusive = small, poorly fitted or top-dose-only effect; inactive = no such curve, though single readings can be large or run the other way.
Classes used: yes for active, no for inactive

• C=C1CCN([C@H](C)[C@](O)(Cn2cncn2)c2ccc(F)cc2F)CC1 = no
• C=C1C(=O)O[C@@H]2C[C@H](C)[C@@H]3CC(=O)[C@H](O)[C@@]3(C)C[C@H]12 = no
• CN(C)C(=O)Nc1cccc(-c2ccc(N(C)C)cc2)c1 = no
• COc1ccc(CNc2nc(N(CCO)CCO)nc3c2ncn3C(C)C)cc1 = no
• N#Cc1ccc(O[C@@H]2c3ccccc3C[C@H]2N2CCC[C@@H](N)C2)c(Cl)c1 = no
• C=C[C@]1(C)C[C@H](O)[C@H]2C(=C)C(=O)O[C@@H]2[C@H]1C(=C)CO = no
• NCC1CCN(c2nccc(-c3ccc4ccccc4c3)n2)CC1 = no
• Cc1cc(Nc2nc(-c3ccccc3)nc3ccccc23)n[nH]1 = no
• CCCNCCc1ccc(NS(=O)(=O)c2ccc(OC(F)(F)F)cc2)cc1 = no
• Cc1ccc(-c2ncc[nH]2)cc1NC(=O)c1ccc(OCc2ccccn2)cc1 = no
• C#CCOc1ccc2c(c1)c(-c1ccc(C(C)C)cc1)nc(=O)n2C(C)C = no
• COC(=O)C1=CO[C@@H](O[C@@H]2O[C@H](CO)[C@@H](O)[C@H](O)[C@H]2O)[C@H]2[C@@H]1C=C[C@]21C=C([C@H](C)OC(=O)/C=C/c2ccc(O)cc2)C(=O)O1 = no
• COc1cc(F)c(F)c(Nc2ccc(I)cc2F)c1NS(=O)(=O)C1(CC(O)CO)CC1 (centres undefined) = no
• CC(C)n1nc(C#Cc2ccccc2)c2c(N)ncnc21 = no
• O=c1ccc2ccc(OCCCCN3CCN(c4cccc5sccc45)CC3)cc2[nH]1 = no
• COc1ccc(-c2csc(NC(=O)[C@H]3CCCCN3S(=O)(=O)c3ccc(C)cc3)n2)cc1 = no
• Cc1ccccc1C(C(=O)NC1CCCCC1)N(C(=O)Cn1cnc2ccccc21)c1cccc(F)c1 (centres undefined) = no
• Cc1cc(C)c(-n2cc(C)c3c(Cl)nc(C)nc32)c(C)c1 = no
• O=C(Nc1cc(C(F)(F)F)cc(C(F)(F)F)c1)c1cnc(Cl)nc1C(F)(F)F = no
• C=CC(=O)N1CCCN(c2cc(NCCC(=O)O)nc(-c3ccccn3)n2)CC1 = no
• CC(=O)OC1C(OC(=O)c2ccccc2)C2C(C)(C)CCC(OC(C)=O)C2(C)C23CCC(C)(C2)C(=O)CC13 (centres undefined) = no
• CNc1nc(Nc2ccc(C(=O)N3CCOCC3)cc2OC)nc2[nH]cc(Cl)c12 = no
• CC(=O)C1=CCC2C3CC=C4CC(O)CC(O)C4(C)C3C(O)CC12C (centres undefined) = no
• O=S(=O)(NCc1cccc2ccccc12)c1cc(Cl)c(Oc2cccc(N3CCNCC3)c2)s1 = no
• Cc1noc(-c2ccc(-c3ccc(CC(=O)O)cc3)cc2)c1NC(=O)O[C@H](C)c1ccccc1Cl = yes
• C/C=C(/C)C(=O)O[C@H]1C=C(CO)C(=O)[C@H](OC(=O)/C(C)=C/CO)[C@H]1C(C)C = no
• CC(=O)c1c(C)cc2cccc(O)c2c1O[C@@H]1O[C@H](CO)[C@@H](O)[C@H](O)[C@H]1O = no
• Cc1cc2sc(NC(=O)Cc3ccccc3)nc2cc1Cl = no
• COc1ccc2c(c1O[C@H]1CCNC1)CCC2 = no
